B1: Pistol ribozyme (parent)
chain: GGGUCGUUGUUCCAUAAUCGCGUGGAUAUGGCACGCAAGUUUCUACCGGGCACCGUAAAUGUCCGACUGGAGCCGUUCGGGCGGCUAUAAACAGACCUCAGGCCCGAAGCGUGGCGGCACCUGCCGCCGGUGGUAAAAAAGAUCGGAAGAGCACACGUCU

- Variants of: B1
- method: aptazyme ON/OFF ratio, guanine; higher = stronger switching; co-transcriptional cleavage with and without guanine
Property: aptazyme ON/OFF ratio; scope: individual variants
The reply should be a number, written without any unit.

mutant	reported-value
U7A U8G U10G U11C C13G	1.29
G9U U10A C12G C13U	1.21
U8A G9C U10G U11G C13G	1.16

What the record says about U7A U10A U11C C12A : aptazyme ON/OFF ratio is 1.08

What the record says about U8G G9A U10C U11G C12U : aptazyme ON/OFF ratio is 1.29

What the record says about U7C U8G U10G U11A C12A C13U : aptazyme ON/OFF ratio is 1.2

What the record says about U7C U8A G9U U10C U11G C12G C13G : aptazyme ON/OFF ratio is 1.08

What the record says about U8C G9C U10G U11A C12G C13G : aptazyme ON/OFF ratio is 1.13

What the record says about U7C U8G G9C U10C U11A : aptazyme ON/OFF ratio is 0.99

What the record says about U8C G9C U10G U11G C12U C13A : aptazyme ON/OFF ratio is 1.07

What the record says about U7G U8C G9U U10A U11C C12U C13U : aptazyme ON/OFF ratio is 1.56

What the record says about U7C U8G G9A U10C U11C C12U C13A : aptazyme ON/OFF ratio is 1.02

From: the RNAGym collection of RNA variant scans (doi:10.1021/acssynbio.7b00057)
